Tested on: 621-103 (TSC2-rescued);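 further: immortalized renal angiomyolipoma cells stably carrying empty vector or TSC2, dosed in 384-well plates in DMEM, viability normalized to vehicle-treated wells within each plate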
Measurement Protocol: relative viability vs DMSO; higher = less cytotoxic
Run Conditions: 0.1 µM; serum: 10% FBS; 72 h
Property Measured: relative viability (%)

>>> recorded_measurement("CC(C)(C)c1cc(C(C)(C)C)c(NC(=O)c2c[nH]c3ccccc3c2=O)cc1O [VX-770]")
110
>>> recorded_measurement("CNC(=O)c1cc(Oc2ccc(NC(=O)Nc3ccc(Cl)c(C(F)(F)F)c3)c(F)c2)ccn1 [BAY 73-4506 (Regorafenib)]")
102
>>> recorded_measurement("CC(C)C[C@H](NC(=O)[C@H](Cc1ccccc1)NC(=O)c1cnccn1)B(O)O [Bortezomib]")
1.43
>>> recorded_measurement("CC[C@@H]1C(=O)N(C)c2cnc(Nc3ccc(C(=O)NC4CCN(C)CC4)cc3OC)nc2N1C1CCCC1 [BI 2536]")
43.5
>>> recorded_measurement("O=c1cc(-c2ccc(O)c(O)c2)oc2cc(O)cc(O)c12 [Luteolin (Luteolol)]")
100
>>> recorded_measurement("CC1(C)CC(=O)c2c(C(F)(F)F)nn(-c3ccc(C(N)=O)c(N[C@H]4CC[C@H](O)CC4)c3)c2C1 [SNX-2112]")
7.98
>>> recorded_measurement("Cn1cc(-c2ccc3nnc(Sc4ccc5ncccc5c4)n3n2)cn1 [SGX-523]")
102
>>> recorded_measurement("N#CC1(c2ccc(NC(=O)c3cccnc3NCc3ccncc3)cc2)CCCC1 [Apatinib]")
107
